# Test system: Human immunodeficiency virus 2
# assay remarks: Inhibition of HIV2 reverse transcriptase assessed as 32P-labeled GMP incorporation into nascent DNA strand at highest concentration
Activity calls are given as the source filed them. No rule for the calls is given here.
quantity name: Activity

INSERT INTO measurements (compound, target_under_test, quantity_name, data_value) VALUES
  ('CCc1c(C(=O)c2cc(C)cc(C)c2)n(CCC2C=CCC2)c(=O)[nH]c1=O (stereo not given)', 'Human immunodeficiency virus 2', 'Activity', 'inactive'),
  ('CCc1c(C(=O)c2cc(C)cc(C)c2)n(CC2CCCC2)c(=O)[nH]c1=O', 'Human immunodeficiency virus 2', 'Activity', 'inactive'),
  ('Cc1cc(C)cc(Sc2c(C(C)C)c(=O)[nH]c(=O)n2CCC2C=CCC2)c1 (stereo not given)', 'Human immunodeficiency virus 2', 'Activity', 'inactive'),
  ('CCc1c(Sc2cc(C)cc(C)c2)n(CC2CCCC2)c(=O)[nH]c1=O', 'Human immunodeficiency virus 2', 'Activity', 'inactive'),
  ('CCc1c(Oc2cc(C)cc(C)c2)n(Cc2ccccc2)c(=O)[nH]c1=O', 'Human immunodeficiency virus 2', 'Activity', 'inactive');

====

# target under test: Human immunodeficiency virus type 1 reverse transcriptase (Human immunodeficiency virus 1)
pIC50: −log10 of the molar value.
pIC50 below 7 gives Not fulfilled; pIC50 at or above it gives Fulfilled.

INSERT INTO results (molecule, target_under_test, assigned_category) VALUES
  ('Cc1cc(C)cc(Sc2c(C(C)C)c(=O)[nH]c(=O)n2CC2CC=CC2)c1', 'Human immunodeficiency virus type 1 reverse transcriptase (Human immunodeficiency virus 1)', 'Not fulfilled'),
  ('CCc1c(Sc2ccccc2)n(CC2CC=CC2)c(=O)[nH]c1=O', 'Human immunodeficiency virus type 1 reverse transcriptase (Human immunodeficiency virus 1)', 'Not fulfilled'),
  ('CCc1c(Sc2cc(C)cc(C)c2)n(CC2CCC2)c(=O)[nH]c1=O', 'Human immunodeficiency virus type 1 reverse transcriptase (Human immunodeficiency virus 1)', 'Fulfilled'),
  ('Cc1cc(C)cc(C(=O)c2cc(=O)[nH]c(=O)n2CC2CC=CC2)c1', 'Human immunodeficiency virus type 1 reverse transcriptase (Human immunodeficiency virus 1)', 'Not fulfilled'),
  ('CCc1c(C(=O)c2cc(C)cc(C)c2)n(CC2CC2)c(=O)[nH]c1=O', 'Human immunodeficiency virus type 1 reverse transcriptase (Human immunodeficiency virus 1)', 'Not fulfilled'),
  ('Cc1cc(C)cc(Oc2c(C(C)C)c(=O)[nH]c(=O)n2CCC2C=CCC2)c1 (stereo unspecified)', 'Human immunodeficiency virus type 1 reverse transcriptase (Human immunodeficiency virus 1)', 'Fulfilled'),
  ('Cc1cc(C)cc(C(=O)c2c(C(C)C)c(=O)[nH]c(=O)n2CC2CCCCC2)c1', 'Human immunodeficiency virus type 1 reverse transcriptase (Human immunodeficiency virus 1)', 'Fulfilled'),
  ('CCc1c(Oc2cc(C)cc(C)c2)n(CC2CCC2)c(=O)[nH]c1=O', 'Human immunodeficiency virus type 1 reverse transcriptase (Human immunodeficiency virus 1)', 'Not fulfilled'),
  ('Cc1cc(C)cc(Sc2c(C(C)C)c(=O)[nH]c(=O)n2CCC2C=CCC2)c1 (stereo unspecified)', 'Human immunodeficiency virus type 1 reverse transcriptase (Human immunodeficiency virus 1)', 'Not fulfilled'),
  ('Cc1cc(C)cc(Oc2c(C(C)C)c(=O)[nH]c(=O)n2CC2=CCCC2)c1', 'Human immunodeficiency virus type 1 reverse transcriptase (Human immunodeficiency virus 1)', 'Fulfilled'),
  ('Cc1cc(C)cc(C(=O)c2c(C(C)C)c(=O)[nH]c(=O)n2CCC2=CCCC2)c1', 'Human immunodeficiency virus type 1 reverse transcriptase (Human immunodeficiency virus 1)', 'Not fulfilled'),
  ('CCc1c(Oc2cc(C)cc(C)c2)n(CC2CC=CC2)c(=O)[nH]c1=O', 'Human immunodeficiency virus type 1 reverse transcriptase (Human immunodeficiency virus 1)', 'Not fulfilled');

====

# target under test: Human immunodeficiency virus type 1 reverse transcriptase (Human immunodeficiency virus 1, UniProt Q72547, K103N)
# assay remarks: Inhibition of HIV1 reverse transcriptase K103N mutant assessed as 32P-labeled GMP incorporation into nascent DNA strand
pIC50: −log10 of the molar value.
pIC50 below 6 gives 0 (no); pIC50 at or above it gives 1 (yes).

INSERT INTO assay_data (compound, assigned_category) VALUES
  ('CCc1c(Sc2cc(C)cc(C)c2)n(CCC2C=CCC2)c(=O)[nH]c1=O (stereo not given)', '0 (no)'),
  ('CCc1c(Sc2cc(C)cc(C)c2)n(CCC2=CCCC2)c(=O)[nH]c1=O', '0 (no)'),
  ('CCc1c(Oc2cc(C)cc(C)c2)n(CC2CC2)c(=O)[nH]c1=O', '1 (yes)'),
  ('Cc1cc(C)cc(Oc2c(C(C)C)c(=O)[nH]c(=O)n2CCC2=CCCC2)c1', '0 (no)'),
  ('CCc1c(C(=O)c2cc(C)cc(C)c2)n(CCC2C=CCC2)c(=O)[nH]c1=O (stereo not given)', '0 (no)'),
  ('CCc1c(Sc2cc(C)cc(C)c2)n(CC2CC=CC2)c(=O)[nH]c1=O', '0 (no)'),
  ('Cc1cc(C)cc(Oc2c(C(C)C)c(=O)[nH]c(=O)n2CC2CCC2)c1', '1 (yes)'),
  ('Cc1cc(C)cc(Sc2c(C(C)C)c(=O)[nH]c(=O)n2CC2CCCCC2)c1', '0 (no)'),
  ('CCc1c(Oc2cc(C)cc(C)c2)n(CC2=CCCC2)c(=O)[nH]c1=O', '1 (yes)'),
  ('Cc1cc(C)cc(C(=O)c2c(C(C)C)c(=O)[nH]c(=O)n2CCC2C=CCC2)c1 (stereo not given)', '0 (no)');

====

# assay remarks: Therapeutic index, ratio of TC50 human HeLa cells expressing CD4-LTR to EC50 for HIV1 entry inhibition in human HeLa cells expressing CD4-LTR
# Type: cell-based
# setup conditions: read-out: TI
quantity name: selectivity ratio

INSERT INTO results (compound, data_value) VALUES
  ('Cc1cc(C)cc(C(=O)c2c(C(C)C)c(=O)[nH]c(=O)n2CCC2CCCC2)c1', 1460),
  ('CCc1c(Sc2cc(C)cc(C)c2)n(CCC2CCCC2)c(=O)[nH]c1=O', 60),
  ('Cc1cc(C)cc(Oc2c(C(C)C)c(=O)[nH]c(=O)n2CCC2=CCCC2)c1', 6),
  ('CCc1c(Oc2cc(C)cc(C)c2)n(CC2CCCC2)c(=O)[nH]c1=O', 89),
  ('CCc1c(Sc2cc(C)cc(C)c2)n(CCC2CC=CC2)c(=O)[nH]c1=O', 1460),
  ('Cc1cc(C)cc(C(=O)c2c(C)c(=O)[nH]c(=O)n2CC2CC=CC2)c1', 121),
  ('Cc1cc(C)cc(Sc2c(C(C)C)c(=O)[nH]c(=O)n2CC2=CCCC2)c1', 3270),
  ('Cc1cc(C)cc(Sc2c(C(C)C)c(=O)[nH]c(=O)n2CC2CCCC2)c1', 39),
  ('CCc1c(C(=O)c2cc(C)cc(C)c2)n(CC2CC=CC2)c(=O)[nH]c1=O', 15700),
  ('CCc1c(C(=O)c2cc(C)cc(C)c2)n(CCC2CCCC2)c(=O)[nH]c1=O', 1230),
  ('Cc1cc(C)cc(C(=O)c2c(C(C)C)c(=O)[nH]c(=O)n2CCC2C=CCC2)c1 (stereo unspecified)', 341),
  ('CCc1c(C(=O)c2cc(C)cc(C)c2)n(CCC2CC=CC2)c(=O)[nH]c1=O', 36),
  ('CCc1c(C(=O)c2cc(C)cc(C)c2)n(Cc2ccccc2)c(=O)[nH]c1=O', 10200),
  ('Cc1cc(C)cc(Sc2c(C(C)C)c(=O)[nH]c(=O)n2CC2CCCCC2)c1', 1890),
  ('CCc1c(C(=O)c2cc(C)cc(C)c2)n(CC2CCCCC2)c(=O)[nH]c1=O', 20200),
  ('CCc1c(Oc2cc(C)cc(C)c2)n(CCC2CC=CC2)c(=O)[nH]c1=O', 570),
  ('CCc1c(Sc2cc(C)cc(C)c2)n(CC2CCC2)c(=O)[nH]c1=O', 4610),
  ('CCc1c(Oc2cc(C)cc(C)c2)n(CCC2C=CCC2)c(=O)[nH]c1=O (stereo unspecified)', 17600),
  ('Cc1cc(C)cc(Sc2c(C(C)C)c(=O)[nH]c(=O)n2CCC2C=CCC2)c1 (stereo unspecified)', 3650),
  ('CCc1c(Sc2cc(C)cc(C)c2)n(CC2CCCCC2)c(=O)[nH]c1=O', 1320),
  ('CCc1c(Sc2cc(C)cc(C)c2)n(Cc2ccccc2)c(=O)[nH]c1=O', 5980);

====

Entries below carry reported log10(IC50) on UniProt:Q72547.
quantity name: log10(IC50) (log10 of the value in nM)

INSERT INTO assay_data (record_smiles, quantity_name, data_value) VALUES
  ('Cc1cc(C)cc(Oc2c(C(C)C)c(=O)[nH]c(=O)n2CCC2CC=CC2)c1', 'log10(IC50)', 2.25),
  ('CCc1c(C(=O)c2cc(C)cc(C)c2)n(CCC2CC=CC2)c(=O)[nH]c1=O', 'log10(IC50)', 1.26),
  ('CCc1c(C(=O)c2cc(C)cc(C)c2)n(CC2CC=CC2)c(=O)[nH]c1=O', 'log10(IC50)', 2.25),
  ('CCc1c(Oc2cc(C)cc(C)c2)n(CCC2CC=CC2)c(=O)[nH]c1=O', 'log10(IC50)', 3.06),
  ('Cc1cc(C)cc(Sc2c(C(C)C)c(=O)[nH]c(=O)n2CC2CCCC2)c1', 'log10(IC50)', 2.11),
  ('Cc1cc(C)cc(Sc2c(C(C)C)c(=O)[nH]c(=O)n2CC2CC2)c1', 'log10(IC50)', 0.48),
  ('CCc1c(Sc2cc(C)cc(C)c2)n(CC2CC2)c(=O)[nH]c1=O', 'log10(IC50)', 1.26),
  ('Cc1cc(C)cc(Oc2c(C(C)C)c(=O)[nH]c(=O)n2CCC2=CCCC2)c1', 'log10(IC50)', 3.19),
  ('Cc1cc(C)cc(C(=O)c2c(C(C)C)c(=O)[nH]c(=O)n2CCC2CC=CC2)c1', 'log10(IC50)', 1.04),
  ('Cc1cc(C)cc(C(=O)c2c(C(C)C)c(=O)[nH]c(=O)n2CC2CCC2)c1', 'log10(IC50)', 1.83);
